Items are presented alongside their recorded binding signal.
- target.or.system: GST-Nv-NF-kB (Cys allele) (Nematostella vectensis, UniProt E5G601 2-411)
- Sequence: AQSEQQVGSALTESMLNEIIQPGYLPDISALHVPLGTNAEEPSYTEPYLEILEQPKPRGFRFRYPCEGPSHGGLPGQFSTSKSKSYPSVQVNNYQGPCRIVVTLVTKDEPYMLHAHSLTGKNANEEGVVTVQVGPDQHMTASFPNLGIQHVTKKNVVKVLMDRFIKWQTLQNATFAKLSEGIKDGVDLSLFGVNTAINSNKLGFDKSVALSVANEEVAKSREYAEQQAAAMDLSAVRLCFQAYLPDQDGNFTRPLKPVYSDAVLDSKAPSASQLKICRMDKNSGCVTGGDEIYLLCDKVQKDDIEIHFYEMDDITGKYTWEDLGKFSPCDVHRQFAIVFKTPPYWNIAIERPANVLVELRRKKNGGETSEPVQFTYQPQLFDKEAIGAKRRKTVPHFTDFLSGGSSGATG
- assay.protocol: protein-binding microarray (PBM); PBM: ~300 nM protein, 6 mM HEPES pH 7.8, 80 mM KCl, 0.5 mM EDTA, 0.5 mM EGTA, 6% glycerol, 35 ng/ul poly-dIdC, 1% milk, 1 h, room temperature; Ap Aiptasia and Nv Nematostella (sea anemones) / Co Capsaspora / Aq Amphimedon (sponge) / Dm Drosophila / Hu human; RHD is the Rel homology domain; high values mean tight binding
- condition.details: dsDNA, one strand shown
measurement.name: binding signal (z-score)

sequence.entry: CCGATTAACATCAGAAATTTACCTGATGTTAATCGGGTCTTGATTCGCTTGACGCTGCTG
measurement.name: binding signal
unit.symbol: z-score
recorded.number: 2.05

sequence.entry: CCGATTAACATCAAAAAACTCCCTGATGTTAATCGGGTCTTGATTCGCTTGACGCTGCTG
measurement.name: binding signal
unit.symbol: z-score
recorded.number: 8.22

sequence.entry: CCGATTAACATCAGGGGGACCCCTGATGTTAATCGGGTCTTGATTCGCTTGACGCTGCTG
measurement.name: binding signal
unit.symbol: z-score
recorded.number: 5.39

sequence.entry: CCGATTAACATCAGGAAGCCCCATGATGTTAATCGGGTCTTGATTCGCTTGACGCTGCTG
measurement.name: binding signal
unit.symbol: z-score
recorded.number: 4.13

sequence.entry: CCGATTAACATCAATTATCCCCCTGATGTTAATCGGGTCTTGATTCGCTTGACGCTGCTG
measurement.name: binding signal
unit.symbol: z-score
recorded.number: 5.48

sequence.entry: CCGATTAACATCAGGAAACCCCATGATGTTAATCGGGTCTTGATTCGCTTGACGCTGCTG
measurement.name: binding signal
unit.symbol: z-score
recorded.number: 4.14

sequence.entry: CCGATTAACATCAGGGAAACATATGATGTTAATCGGGTCTTGATTCGCTTGACGCTGCTG
measurement.name: binding signal
unit.symbol: z-score
recorded.number: 3.74

sequence.entry: CCGATTAACATCAAAATGTCCCCTGATGTTAATCGGGTCTTGATTCGCTTGACGCTGCTG
measurement.name: binding signal
unit.symbol: z-score
recorded.number: 6.47

sequence.entry: CCGATTAACATCAAGAGTCCCCCTGATGTTAATCGGGTCTTGATTCGCTTGACGCTGCTG
measurement.name: binding signal
unit.symbol: z-score
recorded.number: 5.23

sequence.entry: CCGATTAACATCAATGTGGGAAATGATGTTAATCGGGTCTTGATTCGCTTGACGCTGCTG
measurement.name: binding signal
unit.symbol: z-score
recorded.number: 2.75

sequence.entry: CCGATTAACATCAGGGAGATCCCTGATGTTAATCGGGTCTTGATTCGCTTGACGCTGCTG
measurement.name: binding signal
unit.symbol: z-score
recorded.number: 8.14

sequence.entry: CCGATTAACATCAAAGTTTTCCCTGATGTTAATCGGGTCTTGATTCGCTTGACGCTGCTG
measurement.name: binding signal
unit.symbol: z-score
recorded.number: 6.15

sequence.entry: CCGATTAACATCACGGGTTCCCCTGATGTTAATCGGGTCTTGATTCGCTTGACGCTGCTG
measurement.name: binding signal
unit.symbol: z-score
recorded.number: 5.61

sequence.entry: CCGATTAACATCACTATTTCCCCTGATGTTAATCGGGTCTTGATTCGCTTGACGCTGCTG
measurement.name: binding signal
unit.symbol: z-score
recorded.number: 7.42

sequence.entry: CCGATTAACATCACCCCGCCCCCTGATGTTAATCGGGTCTTGATTCGCTTGACGCTGCTG
measurement.name: binding signal
unit.symbol: z-score
recorded.number: 3.28

sequence.entry: CCGATTAACATCAATTTTTCCCGTGATGTTAATCGGGTCTTGATTCGCTTGACGCTGCTG
measurement.name: binding signal
unit.symbol: z-score
recorded.number: 4.95

sequence.entry: CCGATTAACATCAAGGGGGTGACTGATGTTAATCGGGTCTTGATTCGCTTGACGCTGCTG
measurement.name: binding signal
unit.symbol: z-score
recorded.number: 3.59

sequence.entry: CCGATTAACATCAGCATGGGAAATGATGTTAATCGGGTCTTGATTCGCTTGACGCTGCTG
measurement.name: binding signal
unit.symbol: z-score
recorded.number: 2.72

Hey, just so you know, these numbers are from paper PMC5700166.
